Experimental System: T1, human MT1-MMP hemopexin domain (human, UniProt P50281 319-511)
T1 construct: range 319-511; Secreted from HEK293 cells as soluble N-terminally His6-tagged protein; also called MT1-MMP hemopexin-like repeats; MMP14
Assay Explanation: FP competition, tracer A-(17-69-12)-A-Sar6-K(Fluorescein)
Numbered stars: 1 amine (or outer) side, 2 acyl side, 3 side chain; on linkers, the order of the positions; unused ones are H or OH. Bridge positions count the residues as written; N and C are the ends. Ends that are not written are not given here. TBMB = c1c(C[*:1])cc(C[*:3])cc1C[*:2]
Recorded Endpoint: Kd

## Input Return reported Kd. Input binder: ACYNEFGCEDFYDICA (linker 2-8-15 via TBMB; not fully specified (C-terminus), also called A-(17-69-07)-A) [17-69-07-N001]
## Output 1.65 nM

Attribution: patent US20180280525A1
